Hey, just so you know, these numbers are from paper PMC4559079.

assay: Plasma PK of ixazomib given with lenalidomide–dexamethasone, phase 1 study in East Asian patients with RRMM (LC/MS/MS, non-compartmental analysis); assay type: in vivo, human; details: human, plasma, po, cycle 1 day 1; Other; geometric mean (% CV); 4.0 mg oral + lenalidomide–dexamethasone
property: Cmax

The recorded Cmax for CC(C)C[C@H](NC(=O)CNC(=O)c1cc(Cl)ccc1Cl)B(O)O [ixazomib] is 35.7 ng/mL

----------
test: Plasma PK of ixazomib given with lenalidomide–dexamethasone, phase 1 study in East Asian patients with RRMM (LC/MS/MS, non-compartmental analysis); format: in vivo, human; conditions: human, plasma, po, cycle 1 day 15; Other; median (range); 4.0 mg oral + lenalidomide–dexamethasone; read-out: T max
property: Tmax
Include the unit right after the number.

// field: Tmax; key: CC(C)C[C@H](NC(=O)CNC(=O)c1cc(Cl)ccc1Cl)B(O)O ; value = 1.25 h
